- test_name: Displacement of [3H]MK801 from NMDA receptor PCP binding site in guinea pig brain cortex membranes incubated for 120 mins by scintillation counting method
- Assay type: cell membranes, Cavia porcellus
For each record, write down the corresponding Ki.

NC[C@@H]1CO[C@H](c2ccccc2)CO1 (racemic)	> 10 µM
CC[C@]1(c2ccccc2)COC[C@H](CNCc2ccccc2)O1 (racemic)	> 10 µM
CC[C@]1(c2ccccc2)COC[C@H](CN)O1 (racemic)	> 10 µM
NC[C@@H]1COC[C@@](c2ccccc2)(C2CCCCC2)O1 (racemic)	0.893 µM
NC[C@H]1COC[C@@](c2ccccc2)(C2CCCCC2)O1 (racemic)	0.413 µM

Each of the following entries comes with a recorded value; kindly state Ki for each.
1. c1ccc(CNCC2COC(c3ccccc3)(c3ccccc3)CO2)cc1 (centres undefined)
2. c1ccc(CNC[C@@H]2COC[C@H](c3ccccc3)O2)cc1 (racemic)
3. c1ccc(CNCC2COCC(c3ccccc3)(c3ccccc3)O2)cc1 (centres undefined)
4. NC[C@@H]1COC[C@H](c2ccccc2)O1 (racemic)
5. c1ccc(CNCCC2COCC(c3ccccc3)(c3ccccc3)O2)cc1 (centres undefined)
6. NCCC1COC(c2ccccc2)(c2ccccc2)CO1 (centres undefined)
7. CC[C@]1(c2ccccc2)COC[C@@H](CNCc2ccccc2)O1 (racemic)

["> 10 µM", "> 10 µM", "> 10 µM", "> 10 µM", "> 10 µM", "> 10 µM", "> 10 µM"]

Each of the following entries comes with a recorded value; kindly state Ki for each.
1. NCC1COCC(c2ccccc2)(c2ccccc2)O1 (centres undefined)
2. CC[C@]1(c2ccccc2)COC[C@@H](CN)O1 (racemic)
3. c1ccc(CNC[C@@H]2COC[C@@](c3ccccc3)(C3CCCCC3)O2)cc1 (racemic)
4. c1ccc(CNC[C@@H]2CO[C@@H](c3ccccc3)CO2)cc1 (racemic)
5. NCC1COC(c2ccccc2)(c2ccccc2)CO1 (centres undefined)

1. 0.712 µM
2. > 10 µM
3. > 10 µM
4. > 10 µM
5. > 10 µM

Each of the following entries comes with a recorded value; kindly state Ki for each.
1. NC[C@H]1CO[C@H](c2ccccc2)CO1 (racemic)
2. c1ccc(CNC[C@@H]2CO[C@H](c3ccccc3)CO2)cc1 (racemic)
3. c1ccc(CNC[C@@H]2CCO[C@H](c3ccccc3)O2)cc1 (racemic)

1. > 10 µM
2. > 10 µM
3. > 10 µM

Each of the following entries comes with a recorded value; kindly state Ki for each.
1. c1ccc(CNCC2CCOC(c3ccccc3)(c3ccccc3)O2)cc1 (centres undefined)
2. CC[C@]1(c2ccccc2)OC[C@H]([C@@H]2CCCCN2)O1 [ETOXADROL]
3. NC[C@H]1COC[C@H](c2ccccc2)O1 (racemic)
4. c1ccc(CNCCC2COC(c3ccccc3)(c3ccccc3)CO2)cc1 (centres undefined)
5. c1ccc(C2(N3CCCCC3)CCCCC2)cc1 [PHENCYCLIDINE]

["> 10 µM", "0.022 µM", "> 10 µM", "> 10 µM", "0.028 µM"]

Each of the following entries comes with a recorded value; kindly state Ki for each.
1. c1ccc(CNC[C@H]2COC[C@@](c3ccccc3)(C3CCCCC3)O2)cc1 (racemic)
2. CN[C@]1(c2ccccc2Cl)CCCCC1=O [ESKETAMINE]
3. c1ccc(CNC[C@H]2COC[C@H](c3ccccc3)O2)cc1 (racemic)
4. NCCC1COCC(c2ccccc2)(c2ccccc2)O1 (centres undefined)

1. > 10 µM
2. 0.419 µM
3. > 10 µM
4. > 10 µM
